- experiment_summary: in vitro
- conditions: human, liver microsomes
Below, each entry is listed alongside its reported remaining at 20 min, 1 µM.
Answer by giving the amount and then stating its unit.

[[record]]
molecule = "CNC(=O)c1ccc(Oc2ccc(S(=O)(=O)[C@]3(C(=O)NO)CCC4(CCNCC4)C3)cc2)cc1"
metric = "remaining at 20 min, 1 µM"
value = "93.5%"


Returns the measured remaining at 20 min, 1 µM for the input molecule. Input: CNC(=O)c1ccc(Oc2ccc(S(=O)(=O)[C@@]3(C(=O)NO)CCC4(CCNCC4)C3)cc2)cc1
97%

Any idea what remaining at 20 min, 1 µM was measured for O=C(NO)C1(S(=O)(=O)c2ccc(Oc3ccc(OC(F)(F)F)cc3)cc2)CCC2(CCNCC2)C1 (centres undefined) ?
92.1%

Entry under review: CNC(=O)c1ccc(Oc2ccc(S(=O)(=O)C3(C(=O)NO)CCC4(CCNCC4)C3)cc2)cc1 (centres undefined) . Reported remaining at 20 min, 1 µM?
91.1%
